# experimentalSystem: purified integrase (Human immunodeficiency virus type 1 group M subtype B, UniProt P12497)
# Construct: Recombinant integrase (0.26 ng) was incubated with the beads
# methodNotes: HIV-Integrase binding assay (competition with radiolabeled integrase inhibitor)
# statedConditions: competition with [3H]-labeled integrase inhibitor; Cheng and Prusoff
pKi: −log10 of the molar value.
observationType: pKi

Please supply pKi for each of the following items, keeping them in order.
1. Cc1ncnn1-c1cc(F)ccc1CNC(=O)c1nc2n(c(=O)c1O)CCCOC21CCN(S(=O)(=O)N(C)C)CC1 [Example 66]
2. CN(C)S(=O)(=O)N1CCC2(CC1)COCCn1c2nc(C(=O)NCc2ccc(F)cc2)c(O)c1=O [Example 68]
3. Cc1ncnn1-c1cc(F)ccc1CNC(=O)c1nc2n(c(=O)c1O)CCOCC21CCN(C(=O)N(C)C)CC1 [Example 71]
4. CS(=O)(=O)N1CCC2(CC1)OCCCn1c2nc(C(=O)NCc2ccc(F)cc2)c(O)c1=O [Example 60]
5. CC(=O)N1CCC2(CC1)OCCCn1c2nc(C(=O)NCc2ccc(F)cc2)c(O)c1=O [Example 57]
6. CCOC(=O)C(=O)N1CCC2(C1)OCCn1c2nc(C(=O)NCc2ccc(F)cc2)c(O)c1=O (stereo not drawn) [Example 45]
7. Cc1ncnn1-c1cc(F)ccc1CNC(=O)c1nc2n(c(=O)c1O)CCOCC21CCN(C(=O)OCc2ccccc2)CC1 [Example 55]
8. CN(C)C(=O)N1CCC2(CC1)OCCCn1c2nc(C(=O)NCc2ccc(F)cc2)c(O)c1=O [Example 59]

Resp:
["7.30 to 8.52", "7.30 to 8.52", "7.30 to 8.52", "8.52 to 9.00", "8.52 to 9.00", "8.52 to 9.00", "7.30 to 8.52", "8.52 to 9.00"]

Req: Look at this molecule and give its reported pKi. Cc1ncnn1-c1cc(F)ccc1CNC(=O)c1nc2n(c(=O)c1O)CCOCC21CCN(S(=O)(=O)N(C)C)CC1 [Example 70]
Resp: 7.30 to 8.52
